molecular target: CaV2.2 (Homo sapiens); assay: VIPR optical membrane potential assay with electrical stimulation, CaV2.2; details: Table 9, CaV 2.2 receptors
Sequence (Q00975 whole entry): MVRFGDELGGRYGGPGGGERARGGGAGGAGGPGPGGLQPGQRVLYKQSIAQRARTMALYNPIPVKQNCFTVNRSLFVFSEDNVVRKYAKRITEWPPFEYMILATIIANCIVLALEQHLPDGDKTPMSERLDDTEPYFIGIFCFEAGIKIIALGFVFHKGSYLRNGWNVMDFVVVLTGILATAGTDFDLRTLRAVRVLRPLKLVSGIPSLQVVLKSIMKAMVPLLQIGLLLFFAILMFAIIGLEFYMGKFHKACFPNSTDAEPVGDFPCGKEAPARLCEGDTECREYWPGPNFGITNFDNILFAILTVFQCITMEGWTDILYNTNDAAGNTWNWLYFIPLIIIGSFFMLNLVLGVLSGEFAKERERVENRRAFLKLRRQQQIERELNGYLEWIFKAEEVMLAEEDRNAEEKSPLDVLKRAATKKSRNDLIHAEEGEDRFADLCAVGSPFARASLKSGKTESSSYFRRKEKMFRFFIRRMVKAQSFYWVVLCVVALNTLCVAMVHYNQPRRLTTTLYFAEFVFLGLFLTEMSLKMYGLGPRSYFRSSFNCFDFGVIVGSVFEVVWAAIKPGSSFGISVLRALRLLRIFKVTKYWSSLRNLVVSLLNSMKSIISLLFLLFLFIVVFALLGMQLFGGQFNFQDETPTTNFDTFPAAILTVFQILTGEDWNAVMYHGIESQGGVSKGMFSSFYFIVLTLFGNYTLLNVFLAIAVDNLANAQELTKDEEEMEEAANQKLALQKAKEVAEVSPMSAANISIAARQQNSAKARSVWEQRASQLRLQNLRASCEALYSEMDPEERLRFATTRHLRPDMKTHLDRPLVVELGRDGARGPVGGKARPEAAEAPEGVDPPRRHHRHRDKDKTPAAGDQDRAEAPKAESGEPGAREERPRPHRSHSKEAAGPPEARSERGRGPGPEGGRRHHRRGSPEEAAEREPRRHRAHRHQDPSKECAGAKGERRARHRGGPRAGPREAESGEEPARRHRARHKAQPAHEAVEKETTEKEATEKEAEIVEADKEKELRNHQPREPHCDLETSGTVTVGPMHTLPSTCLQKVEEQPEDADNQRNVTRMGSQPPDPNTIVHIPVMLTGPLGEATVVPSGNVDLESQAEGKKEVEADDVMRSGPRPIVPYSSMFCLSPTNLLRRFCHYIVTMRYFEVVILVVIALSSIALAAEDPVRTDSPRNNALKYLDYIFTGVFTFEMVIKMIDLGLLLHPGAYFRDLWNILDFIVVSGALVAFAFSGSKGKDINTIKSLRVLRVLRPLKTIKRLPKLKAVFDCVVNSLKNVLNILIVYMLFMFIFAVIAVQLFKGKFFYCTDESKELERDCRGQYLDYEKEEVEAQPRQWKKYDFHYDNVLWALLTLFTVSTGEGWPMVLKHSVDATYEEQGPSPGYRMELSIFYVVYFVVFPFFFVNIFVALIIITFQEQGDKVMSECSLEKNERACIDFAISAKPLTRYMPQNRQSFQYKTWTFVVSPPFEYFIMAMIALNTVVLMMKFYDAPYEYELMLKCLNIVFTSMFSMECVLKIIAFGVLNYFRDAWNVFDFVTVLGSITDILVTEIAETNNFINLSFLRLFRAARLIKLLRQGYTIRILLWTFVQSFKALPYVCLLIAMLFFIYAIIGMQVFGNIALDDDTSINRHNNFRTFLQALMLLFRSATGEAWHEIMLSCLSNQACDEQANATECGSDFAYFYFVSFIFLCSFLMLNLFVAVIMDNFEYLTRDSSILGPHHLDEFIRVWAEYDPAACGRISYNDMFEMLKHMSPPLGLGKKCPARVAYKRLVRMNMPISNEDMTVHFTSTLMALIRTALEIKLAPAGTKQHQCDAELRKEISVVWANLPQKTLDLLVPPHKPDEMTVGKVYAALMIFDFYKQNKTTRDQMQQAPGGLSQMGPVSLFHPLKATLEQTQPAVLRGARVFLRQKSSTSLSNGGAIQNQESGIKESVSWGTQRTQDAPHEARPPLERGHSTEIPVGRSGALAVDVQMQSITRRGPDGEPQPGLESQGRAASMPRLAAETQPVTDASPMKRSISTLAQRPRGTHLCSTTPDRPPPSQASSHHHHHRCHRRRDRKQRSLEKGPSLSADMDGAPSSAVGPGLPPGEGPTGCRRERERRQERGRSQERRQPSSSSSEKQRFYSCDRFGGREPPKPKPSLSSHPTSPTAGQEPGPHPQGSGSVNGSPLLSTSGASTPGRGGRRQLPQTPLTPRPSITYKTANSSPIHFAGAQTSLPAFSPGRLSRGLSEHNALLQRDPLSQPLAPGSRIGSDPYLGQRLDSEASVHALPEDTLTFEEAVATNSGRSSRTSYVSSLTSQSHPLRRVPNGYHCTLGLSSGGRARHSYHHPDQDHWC
Sequence (P54284 whole entry partner): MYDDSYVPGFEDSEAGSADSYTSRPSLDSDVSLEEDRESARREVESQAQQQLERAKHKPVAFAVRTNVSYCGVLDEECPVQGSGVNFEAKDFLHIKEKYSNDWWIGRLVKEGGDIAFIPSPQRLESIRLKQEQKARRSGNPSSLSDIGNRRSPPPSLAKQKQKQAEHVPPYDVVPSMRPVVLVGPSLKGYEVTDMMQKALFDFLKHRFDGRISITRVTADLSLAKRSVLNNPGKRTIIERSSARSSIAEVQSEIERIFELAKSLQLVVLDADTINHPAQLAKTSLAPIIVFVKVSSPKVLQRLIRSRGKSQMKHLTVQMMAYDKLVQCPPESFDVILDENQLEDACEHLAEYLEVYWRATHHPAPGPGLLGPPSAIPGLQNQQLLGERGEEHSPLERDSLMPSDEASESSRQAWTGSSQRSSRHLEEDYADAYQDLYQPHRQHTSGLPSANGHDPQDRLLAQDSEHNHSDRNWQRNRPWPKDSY
Sequence (P54289 25-956 partner limits assumed): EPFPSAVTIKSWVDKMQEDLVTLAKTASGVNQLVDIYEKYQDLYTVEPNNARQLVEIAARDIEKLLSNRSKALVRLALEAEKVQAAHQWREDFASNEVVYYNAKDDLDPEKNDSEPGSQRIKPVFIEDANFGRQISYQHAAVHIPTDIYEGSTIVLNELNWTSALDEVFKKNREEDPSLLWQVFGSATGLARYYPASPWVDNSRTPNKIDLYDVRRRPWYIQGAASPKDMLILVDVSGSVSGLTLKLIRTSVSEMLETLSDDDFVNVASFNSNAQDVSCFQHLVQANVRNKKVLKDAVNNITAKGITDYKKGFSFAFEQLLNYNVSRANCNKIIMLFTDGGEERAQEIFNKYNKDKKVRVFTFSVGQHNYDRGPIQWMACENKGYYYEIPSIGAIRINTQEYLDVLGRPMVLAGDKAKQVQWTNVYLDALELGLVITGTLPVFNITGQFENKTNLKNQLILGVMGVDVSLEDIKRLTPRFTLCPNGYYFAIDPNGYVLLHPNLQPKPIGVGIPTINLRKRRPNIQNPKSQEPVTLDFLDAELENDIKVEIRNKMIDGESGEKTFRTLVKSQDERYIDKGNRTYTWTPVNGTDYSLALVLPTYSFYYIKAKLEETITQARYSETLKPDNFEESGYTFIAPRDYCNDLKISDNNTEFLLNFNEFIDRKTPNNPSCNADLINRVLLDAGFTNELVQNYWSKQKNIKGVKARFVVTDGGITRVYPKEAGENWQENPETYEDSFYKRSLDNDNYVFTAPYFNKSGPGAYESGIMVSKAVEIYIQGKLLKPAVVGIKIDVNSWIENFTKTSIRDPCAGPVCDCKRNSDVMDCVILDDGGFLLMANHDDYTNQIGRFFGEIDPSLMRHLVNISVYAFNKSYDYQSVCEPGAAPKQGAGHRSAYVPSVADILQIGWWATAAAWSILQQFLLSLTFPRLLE
Sequence (P54289 957-1103 partner limits assumed): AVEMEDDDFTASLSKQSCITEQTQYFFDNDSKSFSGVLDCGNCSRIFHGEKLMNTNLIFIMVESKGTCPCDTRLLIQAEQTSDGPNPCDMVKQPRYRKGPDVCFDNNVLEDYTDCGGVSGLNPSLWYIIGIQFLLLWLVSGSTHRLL
pIC50: −log10 of the molar value.
Readout: pIC50

Short answer for "COc1ccc(CN(C(=O)c2cnc(N3CCOCC3)nc2-c2ccccc2F)C2CC2)cc1" : pIC50 was > 5.70

Summary for this molecule, "Cc1nc(N2CCOCC2)nc(-c2ccccc2F)c1C(=O)N(c1ccccc1)C(C)C" : pIC50 is < 5.00

In plain terms, "O=C(c1cnc(NCc2ccc3c(c2)OCO3)nc1-c1ccc(-c2ccccc2)cc1)N1CCCCC1" has a documented pIC50 of < 5.00

Recorded pIC50 (molecule "COc1cccc(N(C(=O)c2cnc(N3CCOCC3)nc2-c2ccccc2F)C(C)C)c1" ): < 5.00

The values you see were collected from patent US8546414B2.
